Test system: BC-1 (B-Cell Non-Hodgkin's Lymphoma);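 also: after 72 h of two-drug dosing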
procedureDetails: Bliss excess, mean over the matrix (fraction); higher = more synergy
Class (by Bliss excess) -- lo: < -0.02; mid: ≥ -0.02 and < 0.03; hi: ≥ 0.03

QUERY: Assign a bin to N#Cc1cnc(Nc2cc(NC[C@H]3CNCCO3)c(C(F)(F)F)cn2)cn1 [SRA737] + C=CCn1c(=O)c2cnc(Nc3ccc(N4CCN(C)CC4)cc3)nc2n1-c1cccc(C(C)(C)O)n1 [AZD1775] (first compound max 10 µM, partner max 1 µM)
RESULT: hi

Others:
QUERY: Assign a bin to C[C@@H]1COCCN1c1cc(C2([S@](C)(=N)=O)CC2)nc(-c2ccnc3[nH]ccc23)n1 [AZD6738] + O=C(c1cc(Cc2n[nH]c(=O)c3ccccc23)ccc1F)N1CCN(C(=O)C2CC2)CC1 [Olaparib] (first compound max 10 µM, 7x7, partner max 10 µM)
RESULT: mid

QUERY: Now consider COc1cccc(OCCCN)c1-c1cc(Nc2cnc(C#N)cn2)n[nH]1 [Prexasertib] + CCc1c2c(nc3ccc(O)cc13)-c1cc3c(c(=O)n1C2)COC(=O)[C@]3(O)CC [SN-38] (first compound max 1 µM, 7x7, partner max 0.3 µM) and answer again.
RESULT: lo

QUERY: Now consider C=CCn1c(=O)c2cnc(Nc3ccc(N4CCN(C)CC4)cc3)nc2n1-c1cccc(C(C)(C)O)n1 [AZD1775] + C1CN(CCC1(C(=O)N[C@@H](CCO)C2=CC=C(C=C2)Cl)N)C3=NC=NC4=C3C=CN4 [Capivasertib] (first compound max 3 µM, partner max 3 µM) and answer again.
RESULT: mid

QUERY: Now consider Cc1c2c(nn1C)CSCc1cc(n(C)n1)CSc1cc(c3ccccc3c1)OCCCc1c(C(=O)O)n(C)c3c-2c(Cl)ccc13 [AZD5991] + CC(=O)O[C@H]1C(=O)[C@@]2(C)[C@H]([C@H](OC(=O)c3ccccc3)[C@]3(O)C[C@H](OC(=O)[C@H](O)[C@@H](NC(=O)c4ccccc4)c4ccccc4)C(C)=C1C3(C)C)[C@]1(OC(C)=O)CO[C@@H]1C[C@@H]2O [Paclitaxel] (first compound max 1 µM, 7x7, partner max 3 µM) and answer again.
RESULT: lo

QUERY: Now consider Cc1c2c(nn1C)CSCc1cc(n(C)n1)CSc1cc(c3ccccc3c1)OCCCc1c(C(=O)O)n(C)c3c-2c(Cl)ccc13 [AZD5991] + C[C@@H](Nc1cc(F)cc(F)c1)c1cc(C(=O)N(C)C)cc2c(=O)cc(N3CCOCC3)oc12 [AZD8186] (first compound max 1 µM, 7x7, partner max 3 µM) and answer again.
RESULT: mid

QUERY: Now consider C[C@@H]1COCCN1c1cc(C2([S@](C)(=N)=O)CC2)nc(-c2ccnc3[nH]ccc23)n1 [AZD6738] + C1CC(C1)(C(=O)[O-])C(=O)[O-].N.N.[Pt+2] [Carboplatin] (first compound max 10 µM, 7x7, partner max 10 µM) and answer again.
RESULT: mid

QUERY: Now consider CN(C)CCCOc1ccc(-c2ccc3ncc4c(c3c2)n(C2CCOCC2)c(=O)n4C)cn1 [AZD0156] + O=C(c1cc(Cc2n[nH]c(=O)c3ccccc23)ccc1F)N1CCN(C(=O)C2CC2)CC1 [Olaparib] (first compound max 3 µM, partner max 3 µM) and answer again.
RESULT: hi
